- System: methicillin-resistant Staphylococcus epidermidis (MRSE)
- methodNotes: MIC, two-fold agar dilution (CLSI), clinical isolates
- Assay type: cell-based
- conditionContext: strain MRSE 15-7
For each record, check the reported MIC (anti-bacterial activity): if it is below 1 µg/mL write condition met, else write condition not met.

>>> cat("O=CN(O)C[C@@H](CC1CCCC1)C(=O)N1CC2(CC2)C[C@H]1C(=O)N1CCS(=O)(=O)CC1")
"condition not met"
>>> cat("O=CN(O)C[C@@H](CC1CCCC1)C(=O)N1CC2(CC2)C[C@H]1C(=O)Nc1ncccc1F")
"condition not met"
>>> cat("O=CN(O)C[C@@H](CC1CCCC1)C(=O)N1CC2(CC2)C[C@H]1C(=O)Nc1ccncn1")
"condition met"
>>> cat("CCCC[C@H](CN(O)C=O)C(=O)N1CC2(CC2)C[C@H]1C(=O)Nc1cc(C)on1")
"condition met"
>>> cat("Cc1csc(NC(=O)[C@@H]2CC3(CC3)CN2C(=O)[C@H](CC2CCCC2)CN(O)C=O)n1")
"condition met"
>>> cat("CCCC[C@H](CN(O)C=O)C(=O)N1CC2(CC2)C[C@H]1C(=O)Nc1ccncn1")
"condition met"
>>> cat("Cc1cnc(NC(=O)[C@@H]2CC3(CC3)CN2C(=O)[C@H](CC2CCCC2)CN(O)C=O)s1")
"condition met"
